Assay read-out IC50; system under study: Dipeptidyl peptidase 4 (Homo sapiens).
Sequence (P27487 whole entry): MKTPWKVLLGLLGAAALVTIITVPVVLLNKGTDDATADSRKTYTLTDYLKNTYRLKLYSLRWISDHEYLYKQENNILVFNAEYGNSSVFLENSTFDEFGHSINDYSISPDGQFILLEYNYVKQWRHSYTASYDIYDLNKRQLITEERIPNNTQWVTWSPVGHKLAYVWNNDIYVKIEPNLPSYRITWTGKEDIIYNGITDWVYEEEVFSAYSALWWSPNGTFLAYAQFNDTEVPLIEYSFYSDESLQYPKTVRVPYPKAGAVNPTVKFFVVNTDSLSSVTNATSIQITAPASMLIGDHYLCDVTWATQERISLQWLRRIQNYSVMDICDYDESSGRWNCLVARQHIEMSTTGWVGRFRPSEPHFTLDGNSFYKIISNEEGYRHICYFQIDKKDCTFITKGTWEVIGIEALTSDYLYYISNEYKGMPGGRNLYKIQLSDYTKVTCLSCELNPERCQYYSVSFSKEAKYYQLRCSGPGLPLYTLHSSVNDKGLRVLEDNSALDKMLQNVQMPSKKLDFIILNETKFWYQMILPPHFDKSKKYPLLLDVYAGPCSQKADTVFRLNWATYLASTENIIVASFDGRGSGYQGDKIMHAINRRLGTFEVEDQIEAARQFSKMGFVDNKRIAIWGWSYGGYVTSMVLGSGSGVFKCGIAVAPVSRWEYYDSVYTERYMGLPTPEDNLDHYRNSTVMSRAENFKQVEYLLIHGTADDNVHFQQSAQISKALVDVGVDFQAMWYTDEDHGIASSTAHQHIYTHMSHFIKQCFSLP
Numbers only, in µM.

N[C@H](c1ccccc1)[C@@H](N)c1ccccc1 ... 75

Exercise: Tell me its IC50 given N[C@H](c1ccccc1)[C@H](N)c1ccccc1 as the entry.
Key: 45
